# credit: ChEMBL document CHEMBL1141971

Provide the reported pIC50 of each item.
# studyTarget: Glycogen synthase kinase-3 beta (Homo sapiens)
# Sequence (P49841 whole entry): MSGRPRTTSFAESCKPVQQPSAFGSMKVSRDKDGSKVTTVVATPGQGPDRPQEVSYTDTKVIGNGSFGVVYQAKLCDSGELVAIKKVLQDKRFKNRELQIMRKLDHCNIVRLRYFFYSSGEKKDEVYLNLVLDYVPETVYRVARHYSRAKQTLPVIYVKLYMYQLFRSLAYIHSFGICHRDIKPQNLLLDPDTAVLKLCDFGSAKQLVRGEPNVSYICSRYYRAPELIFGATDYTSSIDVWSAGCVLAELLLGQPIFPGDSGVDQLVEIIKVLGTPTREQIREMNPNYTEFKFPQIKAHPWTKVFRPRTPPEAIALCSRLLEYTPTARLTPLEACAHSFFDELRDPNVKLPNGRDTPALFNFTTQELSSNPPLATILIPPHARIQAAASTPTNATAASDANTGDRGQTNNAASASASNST
# assayComment: Inhibitory concentration for Glycogen synthase kinase-3 beta was determined in the presence of 10 um ATP (Km 10 uM)
pIC50: −log10 of the molar value.

The examples below pair each entry with its known result.
{"columns": ["molecule", "pIC50"],
 "data": [
  ["CCN(CC)[C@H]1CC[C@H](Nc2cc(Nc3ccc(S(=O)(=O)N(C)C)cc3)n3ncc(C(C)C)c3n2)CC1", "< 4.30"],
  ["CC(C)c1cnn2c(Nc3ccc(S(=O)(=O)N(C)C)cc3)cc(NC3CCCC(N)C3)nc12 (stereo not drawn)", "< 4.30"]
]}

Moving on to the next molecule.
**Query** # pIC50 lookup, item "CCN[C@H]1CC[C@H](Nc2cc(Nc3ccc(S(=O)(=O)N(C)C)cc3)n3ncc(C(C)C)c3n2)CC1"
**Result** < 4.30
